# protocol.description: Comments (NB not yet translated). [column 'COMMENTAIRES' in source]
# test.context: human

{"compound": "COc1cc([C@@H]2c3cc4c(cc3[C@@H](O[C@@H]3O[C@@H]5CO[C@@H](C)O[C@H]5[C@H](O)[C@H]3O)[C@H]3COC(=O)[C@H]23)OCO4)cc(OC)c1O [ETOPOSIDE]", "Hepatotoxicity (comment)": "MVO"}

* * *

Hepatotoxicity (chronic liver disease) listing for selected compounds.
# test.context: human, serum, 4383 h
experimental.endpoint: Hepatotoxicity (chronic liver disease)

{"compound": "CC(=O)N[C@H]1[C@H]([C@H](O)[C@H](O)CO)OC(C(=O)O)=C[C@@H]1N=C(N)N", "endpoint.value": 0}
{"compound": "Clc1ccccc1C(c1ccccc1)(c1ccccc1)n1ccnc1", "endpoint.value": 0}
{"compound": "Clc1ccc(COC(Cn2ccnc2)c2ccc(Cl)cc2Cl)cc1 (stereo not drawn)", "endpoint.value": 0}
{"compound": "CN1C(=O)CCS(=O)(=O)C1c1ccc(Cl)cc1 (stereo not drawn)", "endpoint.value": 0}
{"compound": "CC(S)C(=O)NCC(=O)O (stereo not drawn)", "endpoint.value": 3}
{"compound": "CC(C)NNC(=O)COc1ccc(Cl)cc1 [IPROCLOZIDE]", "endpoint.value": 0}
{"compound": "O=[N+]([O-])c1cc(Cl)cc(-c2cc(Cl)cc([N+](=O)[O-])c2O)c1O", "endpoint.value": 0}
{"compound": "O=C[C@H](O)[C@@H](O)[C@H](O)[C@H](O)CO[C@H]1O[C@H](CO[C@H]2O[C@H](CO)[C@@H](O)[C@H](O)[C@H]2O)[C@@H](O)[C@H](O)[C@H]1O", "endpoint.value": 0}
{"compound": "Cc1ncc(CO)c(CO)c1O", "endpoint.value": 0}
{"compound": "CCOC(=O)c1c(N)sc2c1CCN(Cc1ccccc1)C2", "endpoint.value": 0}
{"compound": "O=C(O)c1cc(/N=N/c2ccc(S(=O)(=O)Nc3ccccn3)cc2)ccc1O", "endpoint.value": 2}
{"compound": "CC1COc2c(N3CCN(C)CC3)c(F)cc3c(=O)c(C(=O)O)cn1c23 (stereo not drawn)", "endpoint.value": 0}
{"compound": "Cc1cc(Br)c(O)c2ncccc12", "endpoint.value": 0}
{"compound": "CC(C)(C)NC(=O)[C@H]1CC[C@H]2[C@@H]3CC[C@H]4NC(=O)C=C[C@]4(C)[C@H]3CC[C@]12C [FINASTERIDE]", "endpoint.value": 0}
{"compound": "CC(=O)/N=c1/sc(S(N)(=O)=O)nn1C [METHAZOLAMIDE]", "endpoint.value": 0}
{"compound": "CO[C@@H]1[C@@H](OC(N)=O)[C@@H](O)[C@H](Oc2ccc3c(O)c(NC(=O)c4ccc(O)c(CC=C(C)C)c4)c(=O)oc3c2C)OC1(C)C", "endpoint.value": 0}
{"compound": "CC(C)=CCN1CC[C@]2(C)c3cc(O)ccc3C[C@H]1[C@H]2C [(+)-PENTAZOCINE]", "endpoint.value": 0}
{"compound": "COCc1c(C(=O)OC(C)C)ncc2[nH]c3ccc(OCc4ccccc4)cc3c12", "endpoint.value": 0}
{"compound": "COc1cccc2c1C(=O)c1c(O)c3c(c(O)c1C2=O)C[C@@](O)(C(=O)CO)C[C@@H]3O[C@H]1C[C@H](N)[C@H](O[C@@H]2CCCCO2)[C@H](C)O1", "endpoint.value": 0}
{"compound": "CCN(CC)Cc1cc(Nc2ccnc3cc(Cl)ccc23)ccc1O.Cl", "endpoint.value": 0}
{"compound": "NC(=O)OC[C@@H]1[C@H](NC(=O)/C(=N\\OCC(=O)O)c2csc(N)n2)C(=O)N1S(=O)(=O)O", "endpoint.value": 0}
{"compound": "CN(C)S(=O)(=O)c1ccc2c(c1)N(CCCN1CCC(CCO)CC1)c1ccccc1S2", "endpoint.value": 0}
{"compound": "CCCCC(C)(C)[C@H](O)/C=C/[C@H]1[C@H](C)CC(=O)[C@@H]1C/C=C\\CCCC(=O)O", "endpoint.value": 0}
{"compound": "CSCC[C@H](N)C(=O)O", "endpoint.value": 0}
{"compound": "C#C[C@]1(O)CC[C@H]2[C@@H]3CCC4=CC(=O)CCC4=C3C=C[C@@]21CC", "endpoint.value": 0}
{"compound": "CC(=O)[C@@]1(O)CC[C@H]2[C@@H]3C=C(Cl)C4=CC(=O)[C@@H]5C[C@@H]5[C@]4(C)[C@H]3CC[C@@]21C", "endpoint.value": 1}
{"compound": "CN1CCN(CCCN2c3ccccc3Sc3ccc(Cl)cc32)CC1", "endpoint.value": 3}
{"compound": "O=[N+]([O-])c1ccc(O)c([N+](=O)[O-])c1", "endpoint.value": 0}
{"compound": "CCC(C)C(C)(COC(N)=O)COC(N)=O (stereo not drawn) [MEBUTAMATE]", "endpoint.value": 0}
{"compound": "CCC[C@@H]1C[C@@H](C(=O)N[C@@H]([C@H]2O[C@H](SC)[C@H](O)[C@@H](O)[C@H]2O)[C@H](C)Cl)N(C)C1", "endpoint.value": 1}
{"compound": "CC(=O)Nc1nnc(S(N)(=O)=O)s1 [ACETAZOLAMIDE]", "endpoint.value": 0}
{"compound": "CCCCN/C(=C1/C=C(Cl)C=CC1=O)c1ccccc1Cl", "endpoint.value": 0}
{"compound": "CC(=O)O[C@H]1C(=O)[C@@]2(C)[C@H]([C@H](OC(=O)c3ccccc3)[C@]3(O)C[C@H](OC(=O)[C@H](O)[C@@H](NC(=O)c4ccccc4)c4ccccc4)C(C)=C1C3(C)C)[C@]1(OC(C)=O)CO[C@@H]1C[C@@H]2O", "endpoint.value": 0}

* * *

Hepatotoxicity (time to onset) listing for selected compounds.
# protocol.description: Times to onset, minimal and maximal, observed in the indexed observations. [column 'DELAI' in source]
# test.context: human
Where a SMILES comes first, the peptide text is derived from it. Bridges are numbered along the chain shown (N, C = ends). [ ]: non-standard residue; d: D form. The star is where a group is joined. Threoninol(2S,3R) = C[C@@H](O)[C@H](CO)N*

{"compound": "Cc1cc(C(=O)NNCc2ccccc2)no1 [ISOCARBOXAZID]", "Hepatotoxicity (time to onset)": "1 month - 4 months"}
{"compound": "C[C@]12CC[C@@H]3c4ccc(OS(=O)(=O)O)cc4CC[C@H]3[C@@H]1CCC2=O [ESTRONE SULFURIC ACID]", "Hepatotoxicity (time to onset)": "3 months - 1 year"}
{"compound": "CN1C2CCCC1CC(NC(=O)c1nn(C)c3ccccc13)C2 (stereo not given) [GRANISETRON]", "Hepatotoxicity (time to onset)": "1 week"}
{"compound": "CCOC(=O)[C@H](CCc1ccccc1)N[C@@H](C)C(=O)N1[C@H](C(=O)O)C[C@H]2CCCC[C@@H]21 [TRANDOLAPRIL]", "Hepatotoxicity (time to onset)": "2 weeks"}
{"compound": "NC(=O)c1ncn([C@@H]2O[C@H](CO)[C@@H](O)[C@H]2O)n1 [RIBAVIRIN]", "Hepatotoxicity (time to onset)": "11 weeks - 6 months"}
{"compound": "CO/N=C(\\C(=O)N[C@@H]1C(=O)N2C(C(=O)O)=C(COC(C)=O)CS[C@H]12)c1csc(N)n1 [CEFOTAXIME]", "Hepatotoxicity (time to onset)": "3 days - 2 weeks"}
{"compound": "CN(C)CC[C@@H](c1ccc(Cl)cc1)c1ccccn1 [DEXCHLORPHENIRAMINE]", "Hepatotoxicity (time to onset)": "9 days"}
{"compound": "CCN(CC)CCCN(c1ccccc1)C1Cc2ccccc2C1 [APRINDINE]", "Hepatotoxicity (time to onset)": "5 days - 2 months"}
{"compound": "C[C@]12CC[C@@H]3c4ccc(OC(=O)N(CCCl)CCCl)cc4CC[C@H]3[C@@H]1CC[C@@H]2O [ESTRAMUSTINE]", "Hepatotoxicity (time to onset)": "1 month"}
{"compound": "Cc1ncc([N+](=O)[O-])n1CC(O)CCl (stereo not given) [ORNIDAZOLE]", "Hepatotoxicity (time to onset)": "3 days - 6 months"}
{"compound": "CN1C(=O)OC(C)(C)C1=O [TRIMETHADIONE]", "Hepatotoxicity (time to onset)": "2 weeks - 1 month"}
{"compound": "CC1CCc2cc(F)cc3c(=O)c(C(=O)O)cn1c23 (stereo not given) [FLUMEQUINE]", "Hepatotoxicity (time to onset)": "24 days"}
{"compound": "C[C@@H](O)[C@H](CO)NC(=O)[C@@H]1CSSC[C@H](NC(=O)[C@H](N)Cc2ccccc2)C(=O)N[C@@H](Cc2ccccc2)C(=O)N[C@H](Cc2c[nH]c3ccccc23)C(=O)N[C@@H](CCCCN)C(=O)N[C@@H]([C@@H](C)O)C(=O)N1 (H-[dF]CF[dW]KTC-{Threoninol(2S,3R)}; disulfide 2-7)", "Hepatotoxicity (time to onset)": "1 day - 14 months"}
{"compound": "C[C@]12COC(=O)C[C@@H]1CC[C@@H]1[C@@H]2CC[C@@]2(C)[C@H]1CC[C@]2(C)O [OXANDROLONE]", "Hepatotoxicity (time to onset)": "6 months"}
{"compound": "CO[C@]12CC[C@@]3(C[C@@H]1[C@](C)(O)C(C)(C)C)[C@H]1Cc4ccc(O)c5c4[C@@]3(CCN1CC1CC1)[C@H]2O5 [BUPRENORPHINE]", "Hepatotoxicity (time to onset)": "2 days - 3 months"}
